# Tested on: brown planthopper (Nilaparvata lugens)
# Assay Procedure: Test Example 3: pesticidal effect against brown planthopper by foliage spray treatment of rice
# Type: in vivo
# Test Context: composition of the compound and pyriproxyfen; foliage spray on rice seedlings, third-instar larvae, after 5 days; summary of Table 45
Measured Attribute: pesticidal efficacy against brown planthopper (Nilaparvata lugens)

smiles_data=CC(C)COc1cnccc1-c1nc2cc(C(F)(F)F)ccc2o1 observed_measurement="high pesticidal efficacy"
smiles_data=FC(F)(F)COc1cnccc1-c1nc2cc(C(F)(F)F)ccc2o1 observed_measurement="high pesticidal efficacy"
smiles_data=CC(C)(C)COc1cnccc1-c1nc2cc(C(F)(F)F)ccc2o1 observed_measurement="high pesticidal efficacy"
smiles_data=FC(F)(F)COc1cnccc1-c1nc2cc(C(F)(F)F)cnc2o1 observed_measurement="high pesticidal efficacy"

The measured values listed here are drawn from patent US20120252804A1.
